meta.source: PubChem BioAssay AID2060487

tested on: 997537-175-T-J1-PDC complex spheroid viability; test: Anticancer human tumor 997537-175-T-J1-PDC patient-derived colon adenocarcinoma cell line growth inhibition [GQUAD]; details: curve of first compound; second compound 0.0316 µM
pIC50: −log10 of the molar value.
assay readout: pIC50

molecule="COc1ccc([C@@H](O)c2cc(-c3ncnc4cc(N5CCOCC5)ccc34)c(F)cc2Cl)nn1 + CN(C)c1ccc(Nc2c3ccc(NC(=O)CCN4CCCC4)cc3nc3cc(NC(=O)CCN4CCCC4)ccc23)cc1" endpoint_value="< 5.00"
molecule="C=CC(=O)N1CCN(c2nc(=O)n(-c3c(C)ccnc3C(C)C)c3nc(-c4c(O)cccc4F)c(F)cc23)C(C)C1 (stereo not drawn) + CN(C)c1ccc(Nc2c3ccc(NC(=O)CCN4CCCC4)cc3nc3cc(NC(=O)CCN4CCCC4)ccc23)cc1" endpoint_value="< 5.00"

Query string: Consider the molecule shown here: C=CC(=O)N1CCN(c2nc(=O)n(-c3c(C)ccnc3C(C)C)c3nc(-c4c(O)cccc4F)c(F)cc23)C(C)C1 (stereo not drawn) + Cc1cnc(CNC(=O)c2c(=O)c3ccc(N4CCCN(C)CC4)nc3n3c2sc2ccccc23)cn1 What is its recorded pIC50?
Result string: < 5.00

* * *

system: 997537-175-T-J1-PDC complex spheroid viability; experiment: Anticancer human tumor 997537-175-T-J1-PDC cell line growth inhibition [GQUAD]; details: second compound 0.1 µM; first compound 0.1 µM; stronger effect = lower value;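 further: spheroids exposed to the agents for 7 days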;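 on viability, T/C: 100% = DMSO vehicle control viability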
assay readout: viability, T/C (%)
Give just the number in %; leave the unit off.

molecule="Nc1ccn(C2OC(CO)C(O)C2(F)F)c(=O)n1 (stereo not given) + Cc1cnc(CNC(=O)c2c(=O)c3ccc(N4CCCN(C)CC4)nc3n3c2sc2ccccc23)cn1" target_or_test_system="997537-175-T-J1-PDC complex spheroid viability" measure_unit=% endpoint_value=84.5
molecule="Nc1ccn(C2OC(CO)C(O)C2(F)F)c(=O)n1 (stereo not given) + Cc1[nH]c2ccc(F)cc2c1-c1nc2c3cccnc3c3ncccc3c2[nH]1" target_or_test_system="997537-175-T-J1-PDC complex spheroid viability" measure_unit=% endpoint_value=87.2
molecule="CC(=O)O[C@H]1C(=O)[C@@]2(C)[C@H]([C@H](OC(=O)c3ccccc3)[C@]3(O)C[C@H](OC(=O)[C@H](O)[C@@H](NC(=O)c4ccccc4)c4ccccc4)C(C)=C1C3(C)C)[C@]1(OC(C)=O)CO[C@@H]1C[C@@H]2O + CN(C)c1ccc(Nc2c3ccc(NC(=O)CCN4CCCC4)cc3nc3cc(NC(=O)CCN4CCCC4)ccc23)cc1" target_or_test_system="997537-175-T-J1-PDC complex spheroid viability" measure_unit=% endpoint_value=40.9
molecule="CCCS(=O)(=O)Nc1ccc(F)c(C(=O)c2c[nH]c3ncc(-c4ccc(Cl)cc4)cc23)c1F + Cc1cnc(CNC(=O)c2c(=O)c3ccc(N4CCCN(C)CC4)nc3n3c2sc2ccccc23)cn1" target_or_test_system="997537-175-T-J1-PDC complex spheroid viability" measure_unit=% endpoint_value=64.7

Now for the molecule whose viability, T/C we want.
Query string: Consider the molecule shown here: CC1COCCN1c1cc(C2(O)CC3CCC(C2)O3)c2cnn(-c3ccn[nH]3)c2n1 (stereo not given) + CN(C)c1ccc(Nc2c3ccc(NC(=O)CCN4CCCC4)cc3nc3cc(NC(=O)CCN4CCCC4)ccc23)cc1 What is its recorded viability, T/C?
Result string: 79

* * *

test system: 997537-175-T-J1-PDC complex spheroid viability; experiment: Anticancer human tumor 997537-175-T-J1-PDC cell line growth inhibition [GQUAD]; conditions: curve of first compound; second compound 1 µM;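 further: spheroids exposed to the agents for 7 days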
assay readout: IC50

Worked examples follow.
molecule="C=CC(=O)N1CCN(c2nc(=O)n(-c3c(C)ccnc3C(C)C)c3nc(-c4c(O)cccc4F)c(F)cc23)C(C)C1 (stereo not given) + Cc1cnc(CNC(=O)c2c(=O)c3ccc(N4CCCN(C)CC4)nc3n3c2sc2ccccc23)cn1" endpoint_value="> 10 µM"
molecule="CC1COCCN1c1cc(C2(S(C)(=N)=O)CC2)nc(-c2ccnc3[nH]ccc23)n1 (stereo not given) + Cc1[nH]c2ccc(F)cc2c1-c1nc2c3cccnc3c3ncccc3c2[nH]1" endpoint_value="> 10 µM"
molecule="Cn1ncnc1[C@H]1c2n[nH]c(=O)c3cc(F)cc(c23)N[C@@H]1c1ccc(F)cc1 + Cc1cnc(CNC(=O)c2c(=O)c3ccc(N4CCCN(C)CC4)nc3n3c2sc2ccccc23)cn1" endpoint_value="> 0.316 µM"
molecule="COc1cccc2c1C(=O)c1c(O)c3c(c(O)c1C2=O)CC(O)(C(=O)CO)CC3OC1CC(N)C(O)C(C)O1 (stereo not given) + Cc1cnc(CNC(=O)c2c(=O)c3ccc(N4CCCN(C)CC4)nc3n3c2sc2ccccc23)cn1" endpoint_value="7.33 µM"
molecule="CC1COCCN1c1cc(C2(O)CC3CCC(C2)O3)c2cnn(-c3ccn[nH]3)c2n1 (stereo not given) + Cc1[nH]c2ccc(F)cc2c1-c1nc2c3cccnc3c3ncccc3c2[nH]1" endpoint_value="0.155 µM"

Query string: Consider the molecule shown here: CC1COCCN1c1cc(C2(S(C)(=N)=O)CC2)nc(-c2ccnc3[nH]ccc23)n1 (stereo not given) + CN(C)c1ccc(Nc2c3ccc(NC(=O)CCN4CCCC4)cc3nc3cc(NC(=O)CCN4CCCC4)ccc23)cc1 What is its recorded IC50?
Result string: > 10 µM

* * *

system: 997537-175-T-J1-PDC complex spheroid viability; assay: Anticancer human tumor 997537-175-T-J1-PDC cell line growth inhibition [GQUAD]; settings: second compound 0.0316 µM; first compound 0.1 µM; stronger effect = lower value;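 further: spheroids exposed to the agents for 7 days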;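 on viability, T/C: 100% = DMSO vehicle control viability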
Binary call on viability, T/C with cut-off 90%: strictly below means yes (1), and equality or higher means no (0).

molecule="COc1cccc2c1C(=O)c1c(O)c3c(c(O)c1C2=O)CC(O)(C(=O)CO)CC3OC1CC(N)C(O)C(C)O1 (stereo not drawn) + Cc1cnc(CNC(=O)c2c(=O)c3ccc(N4CCCN(C)CC4)nc3n3c2sc2ccccc23)cn1" target_or_test_system="997537-175-T-J1-PDC complex spheroid viability" answer_label="yes (1)"

Query string: Strictly below 90%: is that where viability, T/C of C=CCn1c(=O)c2cnc(Nc3ccc(N4CCN(C)CC4)cc3)nc2n1-c1cccc(C(C)(C)O)n1 + Cc1[nH]c2ccc(F)cc2c1-c1nc2c3cccnc3c3ncccc3c2[nH]1 sits?
Result string: yes (1)

Query string: Strictly below 90%: is that where viability, T/C of COc1cccc2c1C(=O)c1c(O)c3c(c(O)c1C2=O)CC(O)(C(=O)CO)CC3OC1CC(N)C(O)C(C)O1 (stereo not drawn) + Cc1[nH]c2ccc(F)cc2c1-c1nc2c3cccnc3c3ncccc3c2[nH]1 sits?
Result string: yes (1)

Query string: Strictly below 90%: is that where viability, T/C of COc1ncnc(C2CC2)c1-c1ncc2cnn(Cc3ccc(-c4nc(C(F)(F)F)cn4C(C)C)cc3)c2n1 + Cc1[nH]c2ccc(F)cc2c1-c1nc2c3cccnc3c3ncccc3c2[nH]1 sits?
Result string: no (0)

Query string: Strictly below 90%: is that where viability, T/C of CC1COCCN1c1cc(C2(O)CC3CCC(C2)O3)c2cnn(-c3ccn[nH]3)c2n1 (stereo not drawn) + Cc1[nH]c2ccc(F)cc2c1-c1nc2c3cccnc3c3ncccc3c2[nH]1 sits?
Result string: yes (1)

Query string: Strictly below 90%: is that where viability, T/C of C#Cc1c(F)ccc2cc(O)cc(-c3ncc4c(N5CC6CCC(C5)N6)nc(OCC56CCCN5CC(F)C6)nc4c3F)c12 (stereo not drawn) + CN(C)c1ccc(Nc2c3ccc(NC(=O)CCN4CCCC4)cc3nc3cc(NC(=O)CCN4CCCC4)ccc23)cc1 sits?
Result string: no (0)

Query string: Strictly below 90%: is that where viability, T/C of COc1ccc([C@@H](O)c2cc(-c3ncnc4cc(N5CCOCC5)ccc34)c(F)cc2Cl)nn1 + CN(C)c1ccc(Nc2c3ccc(NC(=O)CCN4CCCC4)cc3nc3cc(NC(=O)CCN4CCCC4)ccc23)cc1 sits?
Result string: yes (1)

* * *

system: 997537-175-T-J1-PDC complex spheroid viability; test: Anticancer human tumor 997537-175-T-J1-PDC cell line growth inhibition [GQUAD]; details: second compound 10 µM; first compound 0.00316 µM; stronger effect = lower value;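 further: spheroids exposed to the agents for 7 days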;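 on viability, T/C: 100% = DMSO vehicle control viability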
Below, each of the compounds is paired with its reported viability, T/C value.
Give just the number in %; leave the unit off.

compound="Cn1ncnc1[C@H]1c2n[nH]c(=O)c3cc(F)cc(c23)N[C@@H]1c1ccc(F)cc1 + CN(C)c1ccc(Nc2c3ccc(NC(=O)CCN4CCCC4)cc3nc3cc(NC(=O)CCN4CCCC4)ccc23)cc1" assay_readout="viability, T/C" endpoint_value=87.5

Query string: Consider the compound shown here: Cc1[nH]c2ccccc2c1CCNCc1ccc(/C=C/C(=O)NO)cc1 + Cc1[nH]c2ccc(F)cc2c1-c1nc2c3cccnc3c3ncccc3c2[nH]1 What is its recorded viability, T/C?
Result string: 88.7

Query string: Consider the compound shown here: CCc1c2c(nc3ccc(O)cc13)-c1cc3c(c(=O)n1C2)COC(=O)[C@]3(O)CC + Cc1cnc(CNC(=O)c2c(=O)c3ccc(N4CCCN(C)CC4)nc3n3c2sc2ccccc23)cn1 What is its recorded viability, T/C?
Result string: 71.1

Query string: Consider the compound shown here: Cn1ncnc1[C@H]1c2n[nH]c(=O)c3cc(F)cc(c23)N[C@@H]1c1ccc(F)cc1 + Cc1[nH]c2ccc(F)cc2c1-c1nc2c3cccnc3c3ncccc3c2[nH]1 What is its recorded viability, T/C?
Result string: 61.3

Query string: Consider the compound shown here: CC[C@@]1(O)C(=O)OCc2c1cc1n(c2=O)Cc2cc3c(CN(C)C)c(O)ccc3nc2-1 + Cc1[nH]c2ccc(F)cc2c1-c1nc2c3cccnc3c3ncccc3c2[nH]1 What is its recorded viability, T/C?
Result string: 82.4

Query string: Consider the compound shown here: Cn1ncnc1[C@H]1c2n[nH]c(=O)c3cc(F)cc(c23)N[C@@H]1c1ccc(F)cc1 + Cc1cnc(CNC(=O)c2c(=O)c3ccc(N4CCCN(C)CC4)nc3n3c2sc2ccccc23)cn1 What is its recorded viability, T/C?
Result string: 98.9

Query string: Consider the compound shown here: CC[C@@]1(O)C(=O)OCc2c1cc1n(c2=O)Cc2cc3c(CN(C)C)c(O)ccc3nc2-1 + CN(C)c1ccc(Nc2c3ccc(NC(=O)CCN4CCCC4)cc3nc3cc(NC(=O)CCN4CCCC4)ccc23)cc1 What is its recorded viability, T/C?
Result string: 88.6

Query string: Consider the compound shown here: CCc1c2c(nc3ccc(O)cc13)-c1cc3c(c(=O)n1C2)COC(=O)[C@]3(O)CC + Cc1[nH]c2ccc(F)cc2c1-c1nc2c3cccnc3c3ncccc3c2[nH]1 What is its recorded viability, T/C?
Result string: 52.8

Query string: Consider the compound shown here: Cc1[nH]c2ccccc2c1CCNCc1ccc(/C=C/C(=O)NO)cc1 + Cc1cnc(CNC(=O)c2c(=O)c3ccc(N4CCCN(C)CC4)nc3n3c2sc2ccccc23)cn1 What is its recorded viability, T/C?
Result string: 108
